protocolDescription: Cytotoxicity against human normal peripheral T cells assessed as cell viability at 60 ug/ml after 36 hrs by MTT assay relative to control
observable: viability at 36 h, 60 ug/ml (%)
Response body: numeric value in %, unit text excluded.

Q: Return viability at 36 h, 60 ug/ml for the following compound: CCOC(C)(C)/C=C1/C=C(C(=O)O)C(O)CO1 (stereo unspecified)
Ans: 63.8
